assay: Cytotoxicity against human Huh-7 cells by celltiter-glo Assay; assay type: toxicity, cell-based
recorded endpoint: CC50

Give its CC50 value. Item: `CCC(CC)COC(=O)[C@H](C)N[P@](=O)(OC[C@H]1O[C@@](C#N)(c2ccc3c(N)ncnn23)[C@H](O)[C@@H]1O)Oc1ccccc1`
> 10 µM

----------
test system: Nipah virus; assay: Antiviral activity against NiV by reporter assay; format: functional, organism-based; settings: Henipavirus nipahense
recorded endpoint: pEC50
Answers are plain numbers, as −log10 of the molar value.

What measured pEC50 goes with `CCC(CC)COC(=O)[C@H](C)N[P@](=O)(OC[C@H]1O[C@@](C#N)(c2ccc3c(N)ncnn23)[C@H](O)[C@@H]1O)Oc1ccccc1` ?
7.54
